System: 624824-186-R-J3-PDC multicell spheroids, viability
Experiment: Anticancer human tumor 624824-186-R-J3-PDC patient-derived colon adenocarcinoma cell line growth inhibition [PI3K]
Settings: compound 0.1 µM; active compounds read low
quantity name: viability, T/C

| compound | result |
| --- | --- |
| CC(C)n1nc(-c2ccc3oc(N)nc3c2)c2c(N)ncnc21 | 64.2% [middle of 4 runs] |
| COc1c(OCCCN2CCOCC2)ccc2c3n(c(=NC(=O)c4cnc(N)nc4)nc12)CCN3 | 85.9% [middle of 8 runs] |
| CNC(=O)c1ccc(N2C(=S)N(c3ccc(C#N)c(C(F)(F)F)c3)C(=O)C2(C)C)cc1F | 102% [middle of 4 runs] |
| Cn1nccc1Nc1nccc(-c2ccn(C(CO)c3ccc(Cl)c(F)c3)c(=O)c2)n1 (stereo not given) | 95.1% [middle of 4 runs] |
| Cn1ncnc1[C@H]1c2n[nH]c(=O)c3cc(F)cc(c23)N[C@@H]1c1ccc(F)cc1 | 98.4% [middle of 4 runs] |
| CC(Nc1ccc2c(c1)OCCn1cc(N3C(=O)OCC3C(F)F)nc1-2)C(N)=O (stereo not given) | 109% [middle of 7 runs] |
| CC1(C)CCC(CN2CCN(c3ccc(C(=O)NS(=O)(=O)c4ccc(NCC5CCOCC5)c([N+](=O)[O-])c4)c(Oc4cnc5[nH]ccc5c4)c3)CC2)=C(c2ccc(Cl)cc2)C1 | 99.1% [middle of 4 runs] |
| CC(Cn1ccc(-c2ccc(C#N)c(Cl)c2)n1)NC(=O)c1cc(C(C)O)[nH]n1 (stereo not given) | 97.2% [middle of 4 runs] |
| CC(C)NCC(C(=O)N1CCN(c2ncnc3c2C(C)CC3O)CC1)c1ccc(Cl)cc1 (stereo not given) | 101% [middle of 4 runs] |
| Cc1nc(NC(=O)N2CCCC2C(N)=O)sc1-c1ccnc(C(C)(C)C(F)(F)F)c1 (stereo not given) | 108% [middle of 8 runs] |
| CCN1CCN(Cc2ccc(Nc3ncc(F)c(-c4cc(F)c5nc(C)n(C(C)C)c5c4)n3)nc2)CC1 | 107% [middle of 4 runs] |
| CC1(C)CCC(Nc2ncc(C(F)(F)F)c(-c3c[nH]c4c(P(C)(C)=O)c(C#N)ccc34)n2)CN1 (stereo not given) | 87.3% [middle of 4 runs] |
| C=CC(=O)N1CCN(c2nc(=O)n(-c3c(C)ccnc3C(C)C)c3nc(-c4c(O)cccc4F)c(F)cc23)C(C)C1 (stereo not given) | 94.8% [middle of 4 runs] |
| CC(=O)c1c(C)c2cnc(Nc3ccc(N4CCNCC4)cn3)nc2n(C2CCCC2)c1=O | 105% [middle of 4 runs] |
| CCCS(=O)(=O)Nc1ccc(F)c(C(=O)c2c[nH]c3ncc(-c4ccc(Cl)cc4)cc23)c1F | 97.5% [middle of 4 runs] |

----------
Tested on: 624824-186-R-J3-PDC multicell spheroids, viability
Experiment: Anticancer human tumor 624824-186-R-J3-PDC cell line growth inhibition [PI3K];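 also: luminescent signal used as a stand-in for spheroid viability; spheroids exposed to agents for seven days before luminescence read; percent viability relative to DMSO vehicle control wells taken as 100%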
Details: second compound 3.16 µM; first compound 0.316 µM; active compounds read low
Let's look at some compounds and their measured viability, T/C.
quantity name: viability, T/C (%)

| compound | readout number |
| --- | --- |
| CC(Cn1ccc(-c2ccc(C#N)c(Cl)c2)n1)NC(=O)c1cc(C(C)O)[nH]n1 (stereo not drawn) + CC(Nc1ncnc2nc[nH]c12)c1cc2cccc(Cl)c2c(=O)n1-c1ccccc1 | 112 |
| CNC(=O)c1ccc(N2C(=S)N(c3ccc(C#N)c(C(F)(F)F)c3)C(=O)C2(C)C)cc1F + Cc1nc(NC(=O)N2CCCC2C(N)=O)sc1-c1ccnc(C(C)(C)C(F)(F)F)c1 | 83.9 |
| CNC(=O)c1ccc(N2C(=S)N(c3ccc(C#N)c(C(F)(F)F)c3)C(=O)C2(C)C)cc1F + CC(Nc1ncnc2nc[nH]c12)c1cc2cccc(Cl)c2c(=O)n1-c1ccccc1 | 112 |

----------
System: 624824-186-R-J3-PDC multicell spheroids, viability
Assay: Anticancer human tumor 624824-186-R-J3-PDC cell line growth inhibition [PI3K];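 also: luminescent signal used as a stand-in for spheroid viability; spheroids exposed to agents for seven days before luminescence read; percent viability relative to DMSO vehicle control wells taken as 100%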
Details: second compound 0.316 µM; first compound 0.316 µM; active compounds read low

| compound | test target | viability, T/C, % |
| --- | --- | --- |
| Cn1ncc(Cl)c1-c1cc(C(=O)NC(CN)Cc2cccc(F)c2)sc1Cl (stereo not given) + Cc1nc(NC(=O)N2CCCC2C(N)=O)sc1-c1ccnc(C(C)(C)C(F)(F)F)c1 | 624824-186-R-J3-PDC multicell spheroids, viability | 89.4 |
| CC1(C)CCC(Nc2ncc(C(F)(F)F)c(-c3c[nH]c4c(P(C)(C)=O)c(C#N)ccc34)n2)CN1 (stereo not given) + Cc1nc(NC(=O)N2CCCC2C(N)=O)sc1-c1ccnc(C(C)(C)C(F)(F)F)c1 | 624824-186-R-J3-PDC multicell spheroids, viability | 88 |
| CNC(=O)c1ccc(N2C(=S)N(c3ccc(C#N)c(C(F)(F)F)c3)C(=O)C2(C)C)cc1F + Cc1nc(NC(=O)N2CCCC2C(N)=O)sc1-c1ccnc(C(C)(C)C(F)(F)F)c1 | 624824-186-R-J3-PDC multicell spheroids, viability | 117 |
| CC1(C)CCC(Nc2ncc(C(F)(F)F)c(-c3c[nH]c4c(P(C)(C)=O)c(C#N)ccc34)n2)CN1 (stereo not given) + CC(Nc1ccc2c(c1)OCCn1cc(N3C(=O)OCC3C(F)F)nc1-2)C(N)=O | 624824-186-R-J3-PDC multicell spheroids, viability | 68.2 |
| C[C@@H](NC(=O)c1ncnc(N)c1Cl)c1ncc(C(=O)Nc2cc(C(F)(F)F)c(Cl)cn2)s1 + CC(Nc1ncnc2nc[nH]c12)c1cc2cccc(Cl)c2c(=O)n1-c1ccccc1 | 624824-186-R-J3-PDC multicell spheroids, viability | 92.5 |

----------
Tested on: 624824-186-R-J3-PDC multicell spheroids, viability
Assay: Anticancer human tumor 624824-186-R-J3-PDC cell line growth inhibition [PI3K];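 also: luminescent signal used as a stand-in for spheroid viability; spheroids exposed to agents for seven days before luminescence read; percent viability relative to DMSO vehicle control wells taken as 100%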
Details: second compound 0.01 µM; first compound 0.000316 µM; active compounds read low
Text: Combinatorial screen of targeted agents with the PI3K inhibitors inavolisib, alpelisib, duvelisib, and copanlisib in multi-cell type tumor spheroids A high-throughput screen of multi-cell type tumor spheroids was designed to identify active combinations of targeted small molecules and PI3K pathway inhibitors. […] Compounds. […] If the clinical Cmax for an agent had not been determined, the highest concentration tested was 10 microM. […]
Let's look at some compounds and their measured viability, T/C.

| compound | viability, T/C, % |
| --- | --- |
| CC(C)n1nc(-c2ccc3oc(N)nc3c2)c2c(N)ncnc21 + CC(Nc1ccc2c(c1)OCCn1cc(N3C(=O)OCC3C(F)F)nc1-2)C(N)=O | 97.3 |
| Cn1ncnc1[C@H]1c2n[nH]c(=O)c3cc(F)cc(c23)N[C@@H]1c1ccc(F)cc1 + COc1c(OCCCN2CCOCC2)ccc2c3n(c(=NC(=O)c4cnc(N)nc4)nc12)CCN3 | 115 |
| CC(=O)c1c(C)c2cnc(Nc3ccc(N4CCNCC4)cn3)nc2n(C2CCCC2)c1=O + CC(Nc1ccc2c(c1)OCCn1cc(N3C(=O)OCC3C(F)F)nc1-2)C(N)=O | 108 |
| CC(=O)c1c(C)c2cnc(Nc3ccc(N4CCNCC4)cn3)nc2n(C2CCCC2)c1=O + COc1c(OCCCN2CCOCC2)ccc2c3n(c(=NC(=O)c4cnc(N)nc4)nc12)CCN3 | 104 |
| CC(C)n1nc(-c2ccc3oc(N)nc3c2)c2c(N)ncnc21 + COc1c(OCCCN2CCOCC2)ccc2c3n(c(=NC(=O)c4cnc(N)nc4)nc12)CCN3 | 101 |
| Cn1ncnc1[C@H]1c2n[nH]c(=O)c3cc(F)cc(c23)N[C@@H]1c1ccc(F)cc1 + CC(Nc1ccc2c(c1)OCCn1cc(N3C(=O)OCC3C(F)F)nc1-2)C(N)=O | 97.8 |

----------
Tested on: 624824-186-R-J3-PDC multicell spheroids, viability
Experiment: Anticancer human tumor 624824-186-R-J3-PDC cell line growth inhibition [PI3K];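 also: luminescent signal used as a stand-in for spheroid viability; spheroids exposed to agents for seven days before luminescence read; percent viability relative to DMSO vehicle control wells taken as 100%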
Conditions: second compound 3.16 µM; first compound 0.0316 µM; active compounds read low
Source text: Combinatorial screen of targeted agents with the PI3K inhibitors inavolisib, alpelisib, duvelisib, and copanlisib in multi-cell type tumor spheroids A high-throughput screen of multi-cell type tumor spheroids was designed to identify active combinations of targeted small molecules and PI3K pathway inhibitors. […] Compounds. […] If the clinical Cmax for an agent had not been determined, the highest concentration tested was 10 microM. […]
Rule for this label: condition met means viability, T/C is less than 90%; condition not met means viability, T/C is at least 90%.

| molecule | test target | label |
| --- | --- | --- |
| CC(=O)c1c(C)c2cnc(Nc3ccc(N4CCNCC4)cn3)nc2n(C2CCCC2)c1=O + Cc1nc(NC(=O)N2CCCC2C(N)=O)sc1-c1ccnc(C(C)(C)C(F)(F)F)c1 | 624824-186-R-J3-PDC multicell spheroids, viability | condition met |
| C=CC(=O)N1CCN(c2nc(=O)n(-c3c(C)ccnc3C(C)C)c3nc(-c4c(O)cccc4F)c(F)cc23)C(C)C1 (stereo not given) + CC(Nc1ncnc2nc[nH]c12)c1cc2cccc(Cl)c2c(=O)n1-c1ccccc1 | 624824-186-R-J3-PDC multicell spheroids, viability | condition not met |
| CCCS(=O)(=O)Nc1ccc(F)c(C(=O)c2c[nH]c3ncc(-c4ccc(Cl)cc4)cc23)c1F + Cc1nc(NC(=O)N2CCCC2C(N)=O)sc1-c1ccnc(C(C)(C)C(F)(F)F)c1 | 624824-186-R-J3-PDC multicell spheroids, viability | condition met |
| C#Cc1c(F)ccc2cc(O)cc(-c3ncc4c(N5CC6CCC(C5)N6)nc(OCC56CCCN5CC(F)C6)nc4c3F)c12 (stereo not given) + CC(Nc1ncnc2nc[nH]c12)c1cc2cccc(Cl)c2c(=O)n1-c1ccccc1 | 624824-186-R-J3-PDC multicell spheroids, viability | condition not met |
